// data source = patent US20180185504A1

SYSTEM TESTED: T1, monkey macaca fascicularis PRLR construct with an HA tag on HEK293/mfPRLR cells (macaca fascicularis, UniProt A0A2K5WXK1 25-619)
T1 construct: stably transfected into HEK293
T1 sequence: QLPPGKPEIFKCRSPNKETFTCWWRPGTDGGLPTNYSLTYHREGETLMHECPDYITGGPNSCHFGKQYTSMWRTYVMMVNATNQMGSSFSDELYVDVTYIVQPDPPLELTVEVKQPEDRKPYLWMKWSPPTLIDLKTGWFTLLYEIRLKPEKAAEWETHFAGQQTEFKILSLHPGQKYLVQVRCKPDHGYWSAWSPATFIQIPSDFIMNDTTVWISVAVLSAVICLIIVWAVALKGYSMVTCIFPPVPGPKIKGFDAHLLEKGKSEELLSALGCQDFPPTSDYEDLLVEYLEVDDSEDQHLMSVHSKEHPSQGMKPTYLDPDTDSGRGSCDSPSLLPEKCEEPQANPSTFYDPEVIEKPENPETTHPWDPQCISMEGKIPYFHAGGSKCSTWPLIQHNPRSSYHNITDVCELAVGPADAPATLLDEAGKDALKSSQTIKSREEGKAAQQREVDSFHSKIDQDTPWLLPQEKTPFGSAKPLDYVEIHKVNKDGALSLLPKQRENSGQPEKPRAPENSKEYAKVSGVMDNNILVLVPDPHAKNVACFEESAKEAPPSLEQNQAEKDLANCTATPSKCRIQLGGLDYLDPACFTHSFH
ASSAY TEXT: FACS on HEK293/mfPRLR cells
QUANTITY NAME: FACS Cell Binding (Fold Above Background)
Lab note: write values as number then unit, every time.

GET /value?item= H1H6793P (antibody, human IgG1, V domains shown, human IgG1 Fc (H1H)) VH: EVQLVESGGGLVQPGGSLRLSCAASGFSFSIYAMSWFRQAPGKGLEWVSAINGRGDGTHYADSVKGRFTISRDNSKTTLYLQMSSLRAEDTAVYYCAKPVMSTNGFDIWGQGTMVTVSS VL: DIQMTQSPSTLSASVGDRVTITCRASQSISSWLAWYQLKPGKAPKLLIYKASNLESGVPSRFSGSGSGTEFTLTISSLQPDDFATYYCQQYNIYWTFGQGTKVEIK &field=FACS Cell Binding (Fold Above Background) returns 32 fold
